Cited source for all entries: ChEMBL document CHEMBL1130471

# System: Endothelin receptor type B (Bos taurus)
# Sequence (P28088 whole entry): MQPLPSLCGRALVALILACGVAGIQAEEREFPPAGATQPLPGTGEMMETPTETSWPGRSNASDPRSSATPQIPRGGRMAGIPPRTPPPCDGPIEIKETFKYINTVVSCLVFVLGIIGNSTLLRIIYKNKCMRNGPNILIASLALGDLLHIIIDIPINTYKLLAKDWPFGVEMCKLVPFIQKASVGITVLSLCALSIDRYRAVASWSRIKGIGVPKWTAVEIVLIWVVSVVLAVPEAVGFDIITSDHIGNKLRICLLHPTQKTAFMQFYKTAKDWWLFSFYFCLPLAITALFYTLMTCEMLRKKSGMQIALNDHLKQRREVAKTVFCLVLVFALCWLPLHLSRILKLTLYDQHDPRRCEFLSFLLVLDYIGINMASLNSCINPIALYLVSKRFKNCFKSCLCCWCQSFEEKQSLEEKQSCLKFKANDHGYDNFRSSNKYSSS
# Assay notes: Binding activity to ET-B receptor on bovine cerebellum membrane
# Type: tissue-based
Give measured IC50 for each item. Keep answers brief.
The figure you give is taken to be in µM; do not add the unit.

Which IC50 reading was recorded for the substance H-WFFNYYW-OH ?
3

Which IC50 reading was recorded for the substance H-VYYCHLDIIW-OH ?
3

Which IC50 reading was recorded for the substance H-LYFCHQDVIW-OH ?
3

Which IC50 reading was recorded for the substance H-VYFSHLDIIW-OH ?
1
